The following binders are listed with their measured binding activity, % of wild type values.
- target-or-test-system: PD-1 (UniProt Q15116 25-167, limits assumed)
- Sequence (Q15116 25-167 limits assumed): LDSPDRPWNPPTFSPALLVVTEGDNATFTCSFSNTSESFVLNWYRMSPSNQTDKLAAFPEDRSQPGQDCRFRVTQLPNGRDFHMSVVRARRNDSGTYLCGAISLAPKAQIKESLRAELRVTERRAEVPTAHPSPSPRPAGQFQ
- experiment-summary: ELISA; S9 on the Cys
Note: state the figure and append the unit.

[
  {
    "binder": "anti-PD-1 antibody 2 HC Gly10Cys (antibody, human IgG4 S228P, kappa, V domains shown, arm on Cys10 as named in each row) VH: QVQLVESGGCVVQPGRSLRLDCKASGITFSNSGMHWVRQAPGKGLEWVAVIWYDGSKRYYADSVKGRFTISRDNSKNTLFLQMNSLRAEDTAVYYCATNDDYWGQGTLVTVSS VL: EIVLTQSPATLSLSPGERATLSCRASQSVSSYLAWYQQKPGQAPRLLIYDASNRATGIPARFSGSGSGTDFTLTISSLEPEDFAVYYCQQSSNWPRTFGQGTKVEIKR",
    "property-name": "binding activity, % of wild type",
    "assay-result": "69.3%"
  },
  {
    "binder": "anti-PD-1 antibody 2 HC Ser30Cys (antibody, human IgG4 S228P, kappa, V domains shown, arm on Cys30 as named in each row) VH: QVQLVESGGGVVQPGRSLRLDCKASGITFCNSGMHWVRQAPGKGLEWVAVIWYDGSKRYYADSVKGRFTISRDNSKNTLFLQMNSLRAEDTAVYYCATNDDYWGQGTLVTVSS VL: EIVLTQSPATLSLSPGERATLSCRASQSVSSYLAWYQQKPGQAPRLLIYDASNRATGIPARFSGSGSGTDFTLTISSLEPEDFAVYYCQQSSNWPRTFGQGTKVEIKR",
    "property-name": "binding activity, % of wild type",
    "assay-result": "31.8%"
  }
]

Record summary for anti-PD-1 antibody 2 HC Ser85Cys (antibody, human IgG4 S228P, kappa, V domains shown, arm on Cys85 as named in each row) VH: QVQLVESGGGVVQPGRSLRLDCKASGITFSNSGMHWVRQAPGKGLEWVAVIWYDGSKRYYADSVKGRFTISRDNSKNTLFLQMNCLRAEDTAVYYCATNDDYWGQGTLVTVSS VL: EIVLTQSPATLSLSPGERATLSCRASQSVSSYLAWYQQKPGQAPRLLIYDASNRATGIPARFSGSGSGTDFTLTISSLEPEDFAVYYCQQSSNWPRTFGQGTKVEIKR : reported binding activity, % of wild type = 69.4%

Record summary for anti-PD-1 antibody 2 HC Ala92Cys (antibody, human IgG4 S228P, kappa, V domains shown, arm on Cys92 as named in each row) VH: QVQLVESGGGVVQPGRSLRLDCKASGITFSNSGMHWVRQAPGKGLEWVAVIWYDGSKRYYADSVKGRFTISRDNSKNTLFLQMNSLRAEDTCVYYCATNDDYWGQGTLVTVSS VL: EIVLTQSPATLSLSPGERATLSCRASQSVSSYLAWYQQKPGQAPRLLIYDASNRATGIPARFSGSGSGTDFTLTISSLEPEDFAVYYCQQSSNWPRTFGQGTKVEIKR : reported binding activity, % of wild type = 64.6%

Record summary for anti-PD-1 antibody 2 HC Ala88Cys (antibody, human IgG4 S228P, kappa, V domains shown, arm on Cys88 as named in each row) VH: QVQLVESGGGVVQPGRSLRLDCKASGITFSNSGMHWVRQAPGKGLEWVAVIWYDGSKRYYADSVKGRFTISRDNSKNTLFLQMNSLRCEDTAVYYCATNDDYWGQGTLVTVSS VL: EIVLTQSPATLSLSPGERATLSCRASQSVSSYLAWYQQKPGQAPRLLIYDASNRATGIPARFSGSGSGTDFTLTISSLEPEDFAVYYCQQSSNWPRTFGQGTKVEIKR : reported binding activity, % of wild type = 46.8%
